target: JAK2 (a.a. 828-1132) (Homo sapiens (Human), UniProt O60674); experiment: In vitro JAK kinase assay (HTRF), JAK2, for JAK2/JAK1 ratio; assay type: biochemical; settings: IC50 ratio at 1 mM ATP
Sequence (O60674 828-1132): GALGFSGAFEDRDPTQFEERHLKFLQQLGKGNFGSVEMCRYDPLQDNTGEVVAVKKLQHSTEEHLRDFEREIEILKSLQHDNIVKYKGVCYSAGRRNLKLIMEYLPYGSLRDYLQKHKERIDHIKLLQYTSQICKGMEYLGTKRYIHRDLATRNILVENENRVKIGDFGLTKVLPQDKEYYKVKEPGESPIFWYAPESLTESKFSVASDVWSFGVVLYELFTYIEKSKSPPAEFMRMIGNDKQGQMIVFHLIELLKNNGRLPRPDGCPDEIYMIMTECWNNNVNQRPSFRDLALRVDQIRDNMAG
Recorded JAK2/JAK1 for the following molecules
parameter-measured: JAK2/JAK1

> print(dat)
                                   molecule                         system.under.test  parameter.measured  value.observed
1  N#CCC1(n2cc(-c3ncnc4[nH]ccc34)cn2)CN([C@H]2CC[C@@H](Oc3cc(CCO)nc(C(F)(F)F)n3)CC2)C1 [compound 18]  JAK2 (a.a. 828-1132) (Homo sapiens (Human), UniProt O60674)           JAK2/JAK1             >10
2  N#CCC(CN1CCN(C(=O)c2ccc(C#N)cc2F)CC1)n1cc(-c2ncnc3[nH]ccc23)cn1 (stereo not drawn) [compound 8]  JAK2 (a.a. 828-1132) (Homo sapiens (Human), UniProt O60674)           JAK2/JAK1             >10
3  N#CCC1(n2cc(-c3ncnc4[nH]ccc34)cn2)CN(C2CCN(C(=O)c3ccnc(C(F)(F)F)n3)CC2)C1 [compound 3]  JAK2 (a.a. 828-1132) (Homo sapiens (Human), UniProt O60674)           JAK2/JAK1             >10
